quantity_measured: melting point

Quick one: melting point of CN1OCC(=O)N(c2ccc3c(c2)CCC3)C1=S ?
135 to 137 °C

Quick one: melting point of Cc1ccc(Cl)cc1N1C(=O)CON(C)C1=S ?
100 to 102 °C

Quick one: melting point of Cc1ccc(C)c(N2C(=O)CON(C)C2=S)c1 ?
104 to 106 °C

Quick one: melting point of CN1OCC(=O)N(c2ccc(Oc3ccccc3)cc2)C1=S ?
159 to 160 °C

Quick one: melting point of CN1OCC(=O)N(c2ccc(C(C)(C)C)cc2)C1=S ?
168 to 170 °C

Quick one: melting point of Cc1cc(Cl)ccc1N1C(=O)CON(C)C1=S ?
141 to 143 °C

Quick one: melting point of CCN1OCC(=O)N(c2cc(Cl)ccc2C)C1=S ?
119 to 121 °C

Quick one: melting point of CN1OCC(=O)N(C(c2ccccc2)c2ccccc2)C1=S ?
152 to 154 °C

Quick one: melting point of CC(C)c1ccccc1N1C(=O)CON(C)C1=S ?
98 to 101 °C

Quick one: melting point of Cc1cccc(Cl)c1N1C(=O)CON(C)C1=S ?
176 to 178 °C

Quick one: melting point of COc1ccc(Cl)cc1N1C(=O)CON(C)C1=S ?
189 to 191 °C

----------
So I've got a bunch of compounds here, and I need their change in vivo at 100 mg/kg/day values.
- System: serum HDL cholesterol
- assay_comment: HDL cholesterol determination in cholesterol/cholic acid-fed rats
- Assay type: in vivo, Male Sprague-Dawley rats
- stated_conditions: Rattus norvegicus, feed or water, 192 h, dose 100 mg/kg/day in diet, 8 days, rats fed chow with 0.25% cholic acid and 1.0% cholesterol, FPLC, read-out: HDL Cholesterol Level Increase (%)
Please give the number followed by its unit.

Param readout= change in vivo at 100 mg/kg/day; system= serum HDL cholesterol; entry= CN1OCC(=O)N(c2ccc3c(c2)CCC3)C1=S ; returns value.
192%

Param readout= change in vivo at 100 mg/kg/day; system= serum HDL cholesterol; entry= CC(C)c1ccccc1N1C(=O)CON(C)C1=S ; returns value.
95%

Param readout= change in vivo at 100 mg/kg/day; system= serum HDL cholesterol; entry= Cc1ccc(Cl)cc1N1C(=O)CON(C)C1=S ; returns value.
236%

Param readout= change in vivo at 100 mg/kg/day; system= serum HDL cholesterol; entry= Cc1cccc(Cl)c1N1C(=O)CON(C)C1=S ; returns value.
100%

Param readout= change in vivo at 100 mg/kg/day; system= serum HDL cholesterol; entry= Cc1ccc(C)c(N2C(=O)CON(C)C2=S)c1 ; returns value.
72%

Param readout= change in vivo at 100 mg/kg/day; system= serum HDL cholesterol; entry= Cc1cc(Cl)ccc1N1C(=O)CON(C)C1=S ; returns value.
221%

Param readout= change in vivo at 100 mg/kg/day; system= serum HDL cholesterol; entry= CN1OCC(=O)N(C(c2ccccc2)c2ccccc2)C1=S ; returns value.
60%

Param readout= change in vivo at 100 mg/kg/day; system= serum HDL cholesterol; entry= CN1OCC(=O)N(c2ccc(C(C)(C)C)cc2)C1=S ; returns value.
170%

Param readout= change in vivo at 100 mg/kg/day; system= serum HDL cholesterol; entry= COc1ccc(Cl)cc1N1C(=O)CON(C)C1=S ; returns value.
78%

Param readout= change in vivo at 100 mg/kg/day; system= serum HDL cholesterol; entry= CN1OCC(=O)N(c2ccc(Oc3ccccc3)cc2)C1=S ; returns value.
102%

All values here come from patent US6562814B2.
